target: Histone-lysine N-methyltransferase 2D (Homo sapiens, UniProt O14686)
Measurement kind: IC50

// query Give Histone-lysine N-methyltransferase 2D (Homo sapiens, UniProt O14686) IC50 for CC#CC(=O)NC12CC(NC3=C(Cl)C(=O)c4ncccc4C3=O)(C1)C2
// result > 10 µM

====

Please go through the items and note down their AUC(0-t) at 24 h.
test: AUClast in ICR mouse at 1 mg/kg, iv measured for 24 hrs by LC-MS/MS analysis; type: ADME, organism-based; design: dose 1 mg/kg, time 24 hrs, route iv; details: in vivo
Numbers only, in ng·h/mL.

Structure string: CC#CC(=O)NC12CC(NC3=C(Cl)C(=O)c4ncccc4C3=O)(C1)C2
AUC(0-t) at 24 h [ng·h/mL]: 5180

Here's the next entry for you.
// query Find the recorded AUC(0-t) at 24 h belonging to CC(F)(F)C(=O)NC12CC(NC3=C(Cl)C(=O)c4ncccc4C3=O)(C1)C2 and report it.
// result 476
